Values compiled from paper PMC6858373.

Biological target: full-length P. pyralis luciferase (Photinus pyralis, UniProt P08659, K549A/L550V/N119G/N50D/S548I)
Sequence (P08659 whole entry N50D/N119G/S548I/K549A/L550V, looked up): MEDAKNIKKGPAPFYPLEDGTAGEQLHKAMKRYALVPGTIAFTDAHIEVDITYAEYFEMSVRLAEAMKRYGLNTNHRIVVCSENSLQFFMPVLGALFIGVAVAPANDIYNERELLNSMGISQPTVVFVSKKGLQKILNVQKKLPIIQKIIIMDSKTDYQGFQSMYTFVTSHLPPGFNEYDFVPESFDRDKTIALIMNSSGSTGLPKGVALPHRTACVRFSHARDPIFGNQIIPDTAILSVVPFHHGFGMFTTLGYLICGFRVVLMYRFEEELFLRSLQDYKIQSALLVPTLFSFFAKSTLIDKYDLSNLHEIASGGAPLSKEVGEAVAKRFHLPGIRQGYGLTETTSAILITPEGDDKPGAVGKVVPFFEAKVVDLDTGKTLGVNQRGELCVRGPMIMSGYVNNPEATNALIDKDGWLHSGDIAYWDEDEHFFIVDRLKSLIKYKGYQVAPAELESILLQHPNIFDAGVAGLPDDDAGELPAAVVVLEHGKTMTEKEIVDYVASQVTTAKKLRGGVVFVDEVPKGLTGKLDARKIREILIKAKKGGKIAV
Type: cell-based
Details: CC_NCI screening; normalized to on-plate 0.3% DMSO controls
I would appreciate it if you labelled entries label 1 when Luciferase Assay Z-score (full-length luciferase counter-screen) is 0.6 or higher, otherwise label 0.

>>> discrete_label("Cn1cc(/C=C2\\C(=O)Nc3cccnc32)c2ccccc21")
"label 1"

Quick check: does CN(C)C[C@@H]1CCn2cc(c3ccccc32)C2=C(C(=O)NC2=O)c2cn(c3ccccc23)CCO1 [LY 333531, reference compound] have Luciferase Assay Z-score (full-length luciferase counter-screen) greater than or equal to 0.6? label 0

Quick check: does `Cc1nc2c(c(=O)[nH]1)CSCC2` have Luciferase Assay Z-score (full-length luciferase counter-screen) greater than or equal to 0.6? label 0

Quick check: does `CS(=O)(=O)c1ccc(C(=O)Nc2ccc(Cl)c(-c3ccccn3)c2)c(Cl)c1` have Luciferase Assay Z-score (full-length luciferase counter-screen) greater than or equal to 0.6? label 0

====

Target: FGF14:Nav1.6 C-tail complex (Homo sapiens, UniProt Q92915+Q9UQD0)
Construct: polymerase chain reaction (PCR) amplification of the FGF14 open reading frame (nt 1–855); C-terminal fragment of Nav1.6 (amino acids 1763–1976) fused with CD4ΔC-tail (amino acids 1–395); expressed in transfected cells
Sequence (Q92915 1-252 isoform Q92915-2): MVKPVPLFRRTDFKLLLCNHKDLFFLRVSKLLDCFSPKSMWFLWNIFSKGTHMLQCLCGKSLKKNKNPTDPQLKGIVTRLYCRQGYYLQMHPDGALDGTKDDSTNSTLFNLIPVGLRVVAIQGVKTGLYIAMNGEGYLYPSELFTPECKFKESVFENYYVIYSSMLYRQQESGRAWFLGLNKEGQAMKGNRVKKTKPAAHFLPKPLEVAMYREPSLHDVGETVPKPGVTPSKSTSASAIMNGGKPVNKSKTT
Sequence (Q9UQD0 1763-1976 limits assumed): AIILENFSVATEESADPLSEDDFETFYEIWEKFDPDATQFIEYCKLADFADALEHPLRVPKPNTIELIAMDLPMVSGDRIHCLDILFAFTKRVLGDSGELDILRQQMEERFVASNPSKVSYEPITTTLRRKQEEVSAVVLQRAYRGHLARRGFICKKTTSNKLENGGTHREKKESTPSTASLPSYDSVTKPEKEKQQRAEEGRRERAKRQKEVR
Assay: Split-luciferase complementation assay (LCA) in Clone V double stable HEK293 cells
Type: cell-based
Conditions: CC_NCI screening, biological replicate Set 1; normalized to on-plate 0.3% DMSO controls
Where a name gives a salt, the structure may show the parent alone.
Listing: Split Luciferase Assay Z-score Set 1 of selected molecules
Answer with a number only.

Reference set (4 entries):
>>> observed("N.N.O=C([O-])C1(C(=O)[O-])CCC1.[Pt+2]")
0.82
>>> observed("COc1ccc2c(c1OC)N=C(NC(=O)c1cccnc1)N1CCN=C21")
-0.15
>>> observed("Sc1ncnc2nc[nH]c12")
1.52
>>> observed("NCC(=O)CCC(=O)O [Aminolevulinic acid hydrochloride]")
-0.06

Item: `CO[C@H]1C[C@@H]2CC[C@@H](C)[C@@](O)(O2)C(=O)C(=O)N2CCCC[C@H]2C(=O)O[C@H]([C@H](C)C[C@@H]2CC[C@@H](O)[C@H](OC)C2)CC(=O)[C@H](C)/C=C(\C)[C@@H](O)[C@@H](OC)C(=O)[C@H](C)C[C@H](C)/C=C/C=C/C=C/1C` | Split Luciferase Assay Z-score Set 1: 1.26

Item: `COc1cc(F)c(F)c(Nc2ccc(I)cc2F)c1NS(=O)(=O)C1(C[C@H](O)CO)CC1` | Split Luciferase Assay Z-score Set 1: -7.09

Item: `O=c1cc(N2CCOCC2)oc2c(-c3ccccc3)cccc12` | Split Luciferase Assay Z-score Set 1: -0.94

Item: `O=C1NC(=O)/C(=C/c2ccc3c(c2)OC(F)(F)O3)S1` | Split Luciferase Assay Z-score Set 1: -2.78

Item: `NC(=O)c1ccc(N(C(N)=O)c2c(F)cccc2F)nc1-c1ccc(F)cc1F` | Split Luciferase Assay Z-score Set 1: 1.35

====

Test system: Clone V cells
Details: human
Listing: Toxicity Assay Z-score of selected compounds
Answer with a number only.

Reference set (3 entries):
>>> observed("CN[C@@H]1C[C@H]2O[C@@](C)([C@@H]1OC)n1c3ccccc3c3c4c(c5c6ccccc6n2c5c31)C(=O)NC4 [Staurosporine, reference compound]")
-2.40
>>> observed("C[C@]12CC[C@@H]3c4ccc(OC(=O)N(CCCl)CCCl)cc4CC[C@H]3[C@@H]1CC[C@@H]2OP(=O)(O)O [Estramustine phosphate sodium]")
-0.98
>>> observed("CC1=C2C[C@H]3[C@@H](CC=C4C[C@@H](O)CC[C@@]43C)[C@@H]2CC[C@]12O[C@@H]1C[C@H](C)CN[C@H]1[C@H]2C [CYCLOPAMINE]")
-2.01

Next compound, please.
Item: CC[C@H](CO)Nc1nc(NCc2ccccc2)c2ncn(C(C)C)c2n1 [Roscovitine] | Toxicity Assay Z-score: -0.10
